# measured_target: corticotropin releasing factor 1 receptor
# test_protocol: cell-based or functional assay
Ends that are not written are not given here.
Listing of entries alongside the reported CRF1R EC50.
measured_parameter: CRF1R EC50 (nM)

>  <binder>
SQEPPISLDLPLYLLREVLEMTKADQLAQQAHSNRKLLDIA-NH2 [SEQ ID NO 101]

>  <measured_parameter>
CRF1R EC50

>  <unit_info>
nM

>  <lt_gt_eq>
=

>  <numeric_value>
100

$$$$
>  <binder>
IVLSLDVPIGLLQILLEQEKEKKRKETNARILARV-NH2 [SEQ ID NO 132]

>  <measured_parameter>
CRF1R EC50

>  <unit_info>
nM

>  <lt_gt_eq>
>

>  <numeric_value>
100

$$$$
>  <binder>
ZGPPISIDLPQHLLRKMIEIEKQEKEKQQAANNRLLLDTI (C-terminal amide) [SEQ ID NO 207]

>  <measured_parameter>
CRF1R EC50

>  <unit_info>
nM

>  <lt_gt_eq>
=

>  <numeric_value>
466

$$$$
>  <binder>
ZGPPISIDLPTNLLRKMIEIEKQEKEKQQAANNRLLLDTI (C-terminal amide) [SEQ ID NO 59]

>  <measured_parameter>
CRF1R EC50

>  <unit_info>
nM

>  <lt_gt_eq>
>

>  <numeric_value>
100

$$$$
>  <binder>
DNPSLSIDLPFFLLRTLLELARTQSQRERAEQNAIIFASV-NH2 [SEQ ID NO 184]

>  <measured_parameter>
CRF1R EC50

>  <unit_info>
nM

>  <lt_gt_eq>
=

>  <numeric_value>
486

$$$$
>  <binder>
DNPSLSIDLPLQLLRTLLELARTQSQRERAEQNAIIFASV-NH2 [SEQ ID NO 176]

>  <measured_parameter>
CRF1R EC50

>  <unit_info>
nM

>  <lt_gt_eq>
=

>  <numeric_value>
1000

$$$$
